# SUBJECT_OF_TEST: G-protein coupled receptor 68 (Homo sapiens)
# TEST_METHOD_NOTES: Positive allosteric modulation of human GPR68 expressed in HEK293T cells co-expressing Gs assessed as stimulation of proton-mediated cAMP production by measuring efficacy cooperativity in HBSS buffer containing pH 6.8 to 8.2 HEPES/pH 8.3 to 8.6 TAPS measured after 20 to 30 mins in presence of PDE inhibitor Ro 20-1724 by luciferase-glo reporter gene assay
# Type: functional, cell-based
ASSAY_READOUT: log(activity)

Okay, here is my list. What is log(activity) for each of these?
1. COc1ccccc1CNc1nc(N)nc(-c2ccccc2CO)n1
2. Nc1nc(NCc2ccccc2F)nc(-c2c(F)cccc2CO)n1
3. COc1cccc(CNc2nc(N)nc(-c3ccccc3CO)n2)c1
4. CCNc1nc(NCc2ccccc2)nc(-c2ccccc2CO)n1
5. Nc1nc(NCCCc2ccc(Oc3ccccc3)cc2)nc(-c2ccccc2CO)n1
6. Nc1nc(NCc2ccccc2Cl)nc(-c2ccccc2CO)n1

1. 0.06
2. 0.09
3. 0.23
4. 0.25
5. -0.01
6. 0.23

----------
# SUBJECT_OF_TEST: UniProt Q15743
# Sequence (Q15743 whole entry): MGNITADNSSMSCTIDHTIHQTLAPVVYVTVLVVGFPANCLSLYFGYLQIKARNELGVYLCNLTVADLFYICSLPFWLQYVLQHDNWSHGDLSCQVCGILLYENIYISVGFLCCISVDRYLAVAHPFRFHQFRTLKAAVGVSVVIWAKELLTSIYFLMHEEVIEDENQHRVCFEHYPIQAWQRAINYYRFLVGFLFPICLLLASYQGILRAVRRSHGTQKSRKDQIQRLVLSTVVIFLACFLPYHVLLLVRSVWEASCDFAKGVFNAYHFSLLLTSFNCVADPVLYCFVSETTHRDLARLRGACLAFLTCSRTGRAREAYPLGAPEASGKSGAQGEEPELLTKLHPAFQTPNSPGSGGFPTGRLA
# TEST_METHOD_NOTES: Positive allosteric modulation of human GPR68 expressed in HEK293T cells co-expressing Gs assessed as stimulation of proton-mediated cAMP production by measuring allosteric affinity cooperativity in HBSS buffer containing pH 6.8 to 8.2 HEPES/pH 8.3 to 8.6 TAPS measured after 20 to 30 mins in presence of PDE inhibitor Ro 20-1724 by luciferase-glo reporter gene assay
# Assay type: functional, cell-based
I'd appreciate it if you could supply log(activity) values for the items below.

Solved entries:
Nc1nc(NCc2ccccc2)nc(-c2ccc(F)cc2CO)n1 0.64
CC(C)Oc1ccc(-c2nc(N)nc(NCc3ccccc3)n2)c(CO)c1 0.56

Okay, here is my list. What is log(activity) for each of these?
1. Nc1nc(NCCCc2ccc(Oc3ccccc3)cc2)nc(-c2c(F)cccc2CO)n1
2. COc1ccc(CNc2nc(N)nc(-c3ccccc3CO)n2)cc1
3. Nc1nc(NCc2ccc(F)cc2)nc(-c2ccccc2CO)n1
4. Cc1cccc(CNc2nc(N)nc(-c3ccccc3CO)n2)c1
5. Nc1nc(NCCCCc2ccccc2)nc(-c2c(F)cccc2CO)n1

1. 1.15
2. 0.78
3. 1.09
4. 0.92
5. 1.24

----------
# SUBJECT_OF_TEST: UniProt:Q15743
# TEST_METHOD_NOTES: Positive allosteric modulation of human GPR68 expressed in HEK293T cells co-expressing Gs assessed as stimulation of proton-mediated cAMP production by measuring allosteric affinity cooperativity in HBSS buffer containing pH 6.8 to 8.2 HEPES/pH 8.3 to 8.6 TAPS measured after 20 to 30 mins in presence of PDE inhibitor Ro 20-1724 by luciferase-glo reporter gene assay
# Type: functional, cell-based
Active and inactive are the calls of the source. The calls are words filed in the database; no cut-off is given here.
ASSAY_READOUT: log(activity)

Solved entries:
COMPOUND	OBSERVED_MEASUREMENT
Cc1ccccc1-c1nc(N)nc(NCc2ccccc2)n1	inactive
COc1cccc(-c2nc(N)nc(NCc3ccccc3)n2)c1CO	0.4
Nc1nc(NCc2ccc(Oc3ccccc3)cc2)nc(-c2cc(Cl)ccc2CO)n1	1.05
Nc1nc(NCCc2ccccc2)nc(-c2c(F)cccc2CO)n1	1.06
CC(C)Oc1ccc(CNc2nc(N)nc(-c3ccccc3CO)n2)cc1	0.53
CNc1nc(NCc2ccccc2)nc(-c2ccccc2CO)n1	0.48
Nc1nc(NCCCCc2ccc(Oc3ccccc3)cc2)nc(-c2ccccc2CO)n1	1.03
Nc1nc(NCCCc2ccccc2)nc(-c2ccccc2CO)n1	0.81

Okay, here is my list. What is log(activity) for each of these?
1. Nc1nc(NCc2ccccc2)nc(-c2ccccc2)n1
2. Nc1nc(NCc2ccccc2Cl)nc(-c2ccccc2CO)n1
3. COc1ccccc1CNc1nc(N)nc(-c2c(F)cccc2CO)n1
4. CNCc1ccccc1-c1nc(N)nc(NCc2ccccc2)n1

["inactive", 0.64, 1.12, "inactive"]

Okay, here is my list. What is log(activity) for each of these?
1. Nc1nc(NCc2ccccc2)nc(-c2cccc(F)c2CO)n1
2. Nc1nc(NCc2ccccc2C(F)(F)F)nc(-c2ccccc2CO)n1
3. CCOc1ccc(CNc2nc(N)nc(-c3ccccc3CO)n2)cc1
4. Nc1nc(NCc2ccc(C(F)(F)F)cc2)nc(-c2ccccc2CO)n1
5. Nc1nc(NCc2ccccc2)nc(-c2c(Cl)cccc2CO)n1
6. Cc1ccccc1CNc1nc(N)nc(-c2ccccc2CO)n1

0.59
0.6
0.81
0.78
1.25
0.54

Okay, here is my list. What is log(activity) for each of these?
1. Nc1nc(NCCc2ccc(Oc3ccccc3)cc2)nc(-c2c(F)cccc2CO)n1
2. CC(O)c1ccccc1-c1nc(N)nc(NCc2ccccc2)n1 (stereo not drawn)
3. Nc1nc(NCCCc2ccccc2)nc(-c2cc(Cl)ccc2CO)n1

1.14
inactive
1.03

Okay, here is my list. What is log(activity) for each of these?
1. Nc1nc(NCc2ccccc2F)nc(-c2ccccc2CO)n1
2. Cc1ccc(CNc2nc(N)nc(-c3ccccc3CO)n2)cc1

1. 0.98
2. 0.9
